B1: library; numbered along this chain (parent)
chain: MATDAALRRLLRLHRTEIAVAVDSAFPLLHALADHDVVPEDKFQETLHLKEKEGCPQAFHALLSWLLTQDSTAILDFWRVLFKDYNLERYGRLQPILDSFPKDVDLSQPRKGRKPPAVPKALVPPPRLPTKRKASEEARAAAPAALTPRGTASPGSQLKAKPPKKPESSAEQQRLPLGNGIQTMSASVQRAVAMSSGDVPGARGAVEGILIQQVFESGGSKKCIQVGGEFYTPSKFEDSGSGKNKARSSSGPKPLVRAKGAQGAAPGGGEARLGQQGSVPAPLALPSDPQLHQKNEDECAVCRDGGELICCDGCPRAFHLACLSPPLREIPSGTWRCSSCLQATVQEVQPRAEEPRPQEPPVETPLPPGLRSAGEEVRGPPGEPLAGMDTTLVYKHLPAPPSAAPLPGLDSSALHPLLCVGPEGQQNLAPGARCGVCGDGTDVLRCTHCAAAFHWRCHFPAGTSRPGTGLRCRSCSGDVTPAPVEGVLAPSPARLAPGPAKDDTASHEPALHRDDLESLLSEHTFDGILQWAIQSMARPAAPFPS

- Variants of: B1
- test-protocol: AIRE transcriptional activation functional score (insulin promoter-GFP; nonsense median 0, synonymous median 1) (normalised score); higher = higher AIRE activity (more reporter activation)
- reported-conditions: with insulin promoter-GFP reporter in HEK293
quantity-name: AIRE transcriptional activation functional score
Respond using a number only.

{"mutation": "A261V", "data-value": 1.13}
{"mutation": "K395L", "data-value": 1.38}
{"mutation": "V123T", "data-value": 0.905}
{"mutation": "L255D", "data-value": 0.362}
{"mutation": "G438I", "data-value": 1.08}

Requested field: AIRE transcriptional activation functional score. Item: A321C 0.948

Queued: P355T 1.09

Queued: S241Y 1.12

Queued: E353F 1.25

Queued: R79M -0.695
